# GI50 annotations
# Tested on: A549
# experiment.description: Antitumor activity against human A549 cells
# Format: functional
Write the number in µM without appending the unit.

Entry `Cc1cccc2c1[nH]c(=O)c1c3ccccc3cn21` under A549 had GI50 of 5.01

Next molecule, GI50 to be filled in.
Entry `COc1ccc2c(c1)[nH]c(=O)c1c3ccccc3cn21` under A549 had GI50 of 0.0676

---

# System: UACC-62
# experiment.description: Antitumor activity against human UACC62 cells
# Format: functional
measured.parameter: GI50 (µM)
Write the number in µM without appending the unit.

Answered cases to consult:
So, `O=c1[nH]c2ccccc2n2cc3ccccc3c12` ? Its GI50 was 3.24

So, `COc1ccc2c(c1)[nH]c(=O)c1c3ccccc3cn21` ? Its GI50 was 0.0741

Others:
So, `Cc1cc2[nH]c(=O)c3c4ccccc4cn3c2cc1C` ? Its GI50 was 16.6

So, `O=c1[nH]c2cc(Cl)c(Cl)cc2n2cc3ccccc3c12` ? Its GI50 was 16.6

So, `Cc1cccc2c1[nH]c(=O)c1c3ccccc3cn21` ? Its GI50 was 6.92

---

# Tested on: HCC 2998
# experiment.description: Antitumor activity against human HCC2998 cells
# Type: functional
Rule: measured LC50 below 40 µM gets Met; anything equal to or greater than 40 µM gets Not met.

Input: LC50 under 40 µM? Item: `O=c1[nH]c2cc(Cl)c(Cl)cc2n2cc3ccccc3c12`
Output: Not met

Input: LC50 under 40 µM? Item: `O=c1[nH]c2ccccc2n2cc3ccccc3c12`
Output: Not met

Input: LC50 under 40 µM? Item: `COc1ccc2c(c1)[nH]c(=O)c1c3ccccc3cn21`
Output: Met

Now let's try a different one.
Input: LC50 under 40 µM? Item: `Cc1cc2[nH]c(=O)c3c4ccccc4cn3c2cc1C`
Output: Not met

---

# System: CCRF-CEM
# experiment.description: Growth inhibition of human vinblastine-resistant CEM cells after 72 hrs by MTT assay
# Format: functional
measured.parameter: GI50
Don't forget the unit after the number, please.

So, `O=c1[nH]c2ccccc2n2cc3ccccc3c12` ? Its GI50 was 3800 nM

So, `O=c1[nH]c2cc(Cl)c(Cl)cc2n2cc3ccccc3c12` ? Its GI50 was 1900 nM

So, `Cc1cccc2c1[nH]c(=O)c1c3ccccc3cn21` ? Its GI50 was 3000 nM

So, `COc1ccc2c(c1)[nH]c(=O)c1c3ccccc3cn21` ? Its GI50 was 20 nM

Next compound, GI50 to be filled in.
So, `Cc1cc2[nH]c(=O)c3c4ccccc4cn3c2cc1C` ? Its GI50 was 15100 nM

---

# System: SNB-75
# experiment.description: Antitumor activity against human SNB75 cells
# Type: functional
# assay.conditions: Homo sapiens, SNB-75; read-out: pTGI (converted)
measured.parameter: TGI

So, `O=c1[nH]c2cc(Cl)c(Cl)cc2n2cc3ccccc3c12` ? Its TGI was 53.7 µM

Others:
So, `COc1ccc2c(c1)[nH]c(=O)c1c3ccccc3cn21` ? Its TGI was 0.0832 µM

So, `O=c1[nH]c2ccccc2n2cc3ccccc3c12` ? Its TGI was 74.1 µM

So, `Cc1cc2[nH]c(=O)c3c4ccccc4cn3c2cc1C` ? Its TGI was 30.2 µM

So, `Cc1cccc2c1[nH]c(=O)c1c3ccccc3cn21` ? Its TGI was > 100 µM

---

# Test system: A549
# experiment.description: Antitumor activity against human A549 cells
# Assay type: functional
# assay.conditions: read-out: Log LC50 (the source's name) (converted)
# CC50 annotations

Answered cases to consult:
Entry `O=c1[nH]c2ccccc2n2cc3ccccc3c12` under A549 had CC50 of > 100 µM

Entry `Cc1cc2[nH]c(=O)c3c4ccccc4cn3c2cc1C` under A549 had CC50 of 95.5 µM

Others:
Entry `O=c1[nH]c2cc(Cl)c(Cl)cc2n2cc3ccccc3c12` under A549 had CC50 of 63.1 µM

Entry `COc1ccc2c(c1)[nH]c(=O)c1c3ccccc3cn21` under A549 had CC50 of 6.03 µM

Entry `Cc1cccc2c1[nH]c(=O)c1c3ccccc3cn21` under A549 had CC50 of > 100 µM

---

# Tested on: NCI-H460
# experiment.description: Antitumor activity against human NCI-H460 cells
# Format: functional
# assay.conditions: read-out: Log LC50 (the source's name) (converted)
measured.parameter: CC50

So, `O=c1[nH]c2cc(Cl)c(Cl)cc2n2cc3ccccc3c12` ? Its CC50 was 57.5 µM

So, `O=c1[nH]c2ccccc2n2cc3ccccc3c12` ? Its CC50 was > 100 µM

So, `Cc1cccc2c1[nH]c(=O)c1c3ccccc3cn21` ? Its CC50 was 31.6 µM

Others:
So, `Cc1cc2[nH]c(=O)c3c4ccccc4cn3c2cc1C` ? Its CC50 was 63.1 µM

So, `COc1ccc2c(c1)[nH]c(=O)c1c3ccccc3cn21` ? Its CC50 was 5.13 µM

---

# System: EKVX
# experiment.description: Antitumor activity against human EKVX cells
# Format: functional
measured.parameter: GI50 (µM)
Write the number in µM without appending the unit.

Answered cases to consult:
So, `COc1ccc2c(c1)[nH]c(=O)c1c3ccccc3cn21` ? Its GI50 was 0.0912

So, `O=c1[nH]c2ccccc2n2cc3ccccc3c12` ? Its GI50 was 4.79

Others:
So, `O=c1[nH]c2cc(Cl)c(Cl)cc2n2cc3ccccc3c12` ? Its GI50 was 21.9

So, `Cc1cccc2c1[nH]c(=O)c1c3ccccc3cn21` ? Its GI50 was 5.62

So, `Cc1cc2[nH]c(=O)c3c4ccccc4cn3c2cc1C` ? Its GI50 was 13.5

---

# Tested on: OVCAR-3
# experiment.description: Antitumor activity against human OVCAR-3 cells
# Assay type: functional
# GI50 annotations
Don't forget the unit after the number, please.

Answered cases to consult:
Entry `COc1ccc2c(c1)[nH]c(=O)c1c3ccccc3cn21` under OVCAR-3 had GI50 of 0.0224 µM

Entry `Cc1cc2[nH]c(=O)c3c4ccccc4cn3c2cc1C` under OVCAR-3 had GI50 of 13.8 µM

Entry `O=c1[nH]c2cc(Cl)c(Cl)cc2n2cc3ccccc3c12` under OVCAR-3 had GI50 of 18.6 µM

Entry `Cc1cccc2c1[nH]c(=O)c1c3ccccc3cn21` under OVCAR-3 had GI50 of 4.79 µM

Next compound, GI50 to be filled in.
Entry `O=c1[nH]c2ccccc2n2cc3ccccc3c12` under OVCAR-3 had GI50 of 18.6 µM

---

# Test system: CAKI-1
# experiment.description: Antitumor activity against human CAKI1 cells
# Format: functional
# assay.conditions: read-out: pTGI (converted)
Rule: measured TGI below 20 µM gets fulfilled; anything equal to or greater than 20 µM gets not fulfilled.

Consider the following illustrative entries.
Input: TGI under 20 µM? Item: `Cc1cccc2c1[nH]c(=O)c1c3ccccc3cn21`
Output: fulfilled

Input: TGI under 20 µM? Item: `Cc1cc2[nH]c(=O)c3c4ccccc4cn3c2cc1C`
Output: fulfilled

Input: TGI under 20 µM? Item: `COc1ccc2c(c1)[nH]c(=O)c1c3ccccc3cn21`
Output: fulfilled

Input: TGI under 20 µM? Item: `O=c1[nH]c2ccccc2n2cc3ccccc3c12`
Output: not fulfilled

Now let's try a different one.
Input: TGI under 20 µM? Item: `O=c1[nH]c2cc(Cl)c(Cl)cc2n2cc3ccccc3c12`
Output: not fulfilled

---

# Tested on: SK-MEL-2
# experiment.description: Antitumor activity against human SKMEL2 cells
# Format: functional
# assay.conditions: read-out: pTGI (converted)
measured.parameter: TGI (µM)
Write the number in µM without appending the unit.

Answered cases to consult:
Entry `O=c1[nH]c2cc(Cl)c(Cl)cc2n2cc3ccccc3c12` under SK-MEL-2 had TGI of 53.7

Entry `COc1ccc2c(c1)[nH]c(=O)c1c3ccccc3cn21` under SK-MEL-2 had TGI of 2.51

Entry `Cc1cc2[nH]c(=O)c3c4ccccc4cn3c2cc1C` under SK-MEL-2 had TGI of 34.7

Others:
Entry `O=c1[nH]c2ccccc2n2cc3ccccc3c12` under SK-MEL-2 had TGI of 38.9

---

# System: MOLT-4
# experiment.description: Antitumor activity against human MOLT4 cells
# Assay type: functional
# assay.conditions: read-out: pTGI (converted)
# TGI annotations
Write the number in µM without appending the unit.

Answered cases to consult:
So, `O=c1[nH]c2cc(Cl)c(Cl)cc2n2cc3ccccc3c12` ? Its TGI was 37.2

So, `Cc1cccc2c1[nH]c(=O)c1c3ccccc3cn21` ? Its TGI was 5.62

So, `Cc1cc2[nH]c(=O)c3c4ccccc4cn3c2cc1C` ? Its TGI was 19.5

So, `O=c1[nH]c2ccccc2n2cc3ccccc3c12` ? Its TGI was 8.71

Others:
So, `COc1ccc2c(c1)[nH]c(=O)c1c3ccccc3cn21` ? Its TGI was 2.14
